Tested on: EGFP reporter (7×TetO array, basal CMV promoter) in HEK293T reporter cell line
Assay: TAD-seq pooled activation screen of 60-aa fragments fused to PYL1
Assay type: cell-based, human
Conditions: log 2 fold change of counts, sorted medium GFP cells (top 2-5%) vs unsorted cells; 100 μM ABA 48 hours
Is logFC medium GFP at least 0.9? Then Condition met. If not, Condition not met.

IN: Decide: is the reported value of logFC medium GFP for HSF1-24: 60-aa TAD-seq fragment of HSF1 (SGKQLVHYTAQPLFLLDPGSVDTGSNDLPVLFELGEGSYFSEGDGFAEDPTISLLTGSEP; listed as Homo sapiens) equal to or greater than 0.9?
OUT: Condition not met

IN: Follow-up item: CITED1-7: 60-aa TAD-seq fragment of CITED1 (LQNWDFGAQAGGAESLSPSAGAQSPAIIDSDPVDEEVLMSLVVELGLDRANELPELWLGQ; listed as Homo sapiens)
OUT: Condition met

IN: Follow-up item: YAF2-6: 60-aa TAD-seq fragment of YAF2 (EKKDKVEKEKSEKETTSKKNSHKKTRPRLKNVDRSSAQHLEVTVGDLTVIITDFKEKTKS; listed as Homo sapiens)
OUT: Condition met

IN: Follow-up item: HOXA2-5: 60-aa TAD-seq fragment of HOXA2 (RGSPVPAGALQPPEYPWMKEKKAAKKTALLPAAAAAATAAATGPACLSHKESLEIADGSG; listed as Homo sapiens)
OUT: Condition met

IN: Follow-up item: FAM22F-23: 60-aa TAD-seq fragment of FAM22F (LSYIDKLCSQEDFVTKVEAVIHPRFLEELLSPDPQMDFLALSQELEQEEGLTLAQLVEKR; listed as Homo sapiens)
OUT: Condition not met

IN: Follow-up item: NPAS4-31: 60-aa TAD-seq fragment of NPAS4 (DVPLVPEGLLTPEASPVKQSFFHYSEKEQNEIDRLIQQISQLAQGMDRPFSAEAGTGGLE; listed as Homo sapiens)
OUT: Condition not met

IN: Follow-up item: ELF4-2: 60-aa TAD-seq fragment of ELF4 (DDIHQLEDPSVFPAVIVEQVPYPDLLHLYSGLELDDVHNGIITDGTLCMTQDQILEGSFL; listed as Homo sapiens)
OUT: Condition met

IN: Follow-up item: BRD8-23: 60-aa TAD-seq fragment of BRD8 (KEECFRSGVAEAPVGSKAPSIDGKEELDLAEKMDIAVSYTGEELDFETVGDIIAIIEDKV; listed as Homo sapiens)
OUT: Condition not met

IN: Follow-up item: BTBD18-24: 60-aa TAD-seq fragment of BTBD18 (IDCREPYAFDTALLEQPCEAEEYRITSAAATSELEEILDFMLCGSDIEPPIGSLESPGAE; listed as Homo sapiens)
OUT: Condition not met

----------
Test system: EGFP reporter (7×TetO array, basal CMV promoter) in HEK293T reporter cell line
Experiment: TAD-seq pooled activation screen of 60-aa fragments fused to PYL1
Type: cell-based, human
Conditions: log 2 fold change of counts, sorted medium GFP cells (top 2-5%) vs unsorted cells; 100 μM ABA 48 hours
RECORDED_ENDPOINT: logFC medium GFP

IN: Bench note: what logFC medium GFP did MYCL1-1: 60-aa TAD-seq fragment of MYCL1 (MDYDSYQHYFYDYDCGEDFYRSTAPSEDIWKKFELVPSPPTSPPWGLGPGAGDPAPGIGP; listed as Homo sapiens) show?
OUT: 0.7968

IN: Follow-up item: ZXDC-12: 60-aa TAD-seq fragment of ZXDC (SPAEQHGAQDTELSAGTGNFYLESGGSARTDYRAIQLAKEKKQRGAGSNAGASQSTQRKI; listed as Homo sapiens)
OUT: 2.496

IN: Follow-up item: DDIT3-2: 60-aa TAD-seq fragment of DDIT3 (WYEDLQEVLSSDENGGTYVSPPGNEEEESKIFTTLDPASLAWLTEEEPEPAEVTSTSQSP; listed as Homo sapiens)
OUT: 1.28

IN: Follow-up item: ATXN7L3-1: 60-aa TAD-seq fragment of ATXN7L3 (MKMEEMSLSGLDNSKLEAIAQEIYADLVEDSCLGFCFEVHRAVKCGYFFLDDTDPDSMKD; listed as Homo sapiens)
OUT: 1.684

IN: Follow-up item: ATOH1-1: 60-aa TAD-seq fragment of ATOH1 (MSRLLHAEEWAEVKELGDHHRQPQPHHLPQPPPPPQPPATLQAREHPVYPPELSLLDSTD; listed as Homo sapiens)
OUT: 0.9194

IN: Follow-up item: NPAS4-39: 60-aa TAD-seq fragment of NPAS4 (CNNLSPEDHSFLEDLATYETAFETGVSAFPYDGFTDELHQLQSQVQDSFHEDGSGGEPTF; listed as Homo sapiens)
OUT: 0.7684

IN: Follow-up item: FAM22F-22: 60-aa TAD-seq fragment of FAM22F (EKGKVEQPQEEDGITSDPGLLSYIDKLCSQEDFVTKVEAVIHPRFLEELLSPDPQMDFLA; listed as Homo sapiens)
OUT: 2.325

IN: Follow-up item: ATMIN-32: 60-aa TAD-seq fragment of ATMIN (ETQTMSSGFETLGSLFFTSNETQTAMDDFLLADLAWNTMESQFSSVETQTSAEPHTVSNF; listed as Homo sapiens)
OUT: 0.8198

IN: Follow-up item: NEUROG3-5: 60-aa TAD-seq fragment of NEUROG3 (RRSRRKKANDRERNRMHNLNSALDALRGVLPTFPDDAKLTKIETLRFAHNYIWALTQTLR; listed as Homo sapiens)
OUT: 0.6713

IN: Follow-up item: CITED2-12: 60-aa TAD-seq fragment of CITED2 (AMLPPNVIDTDFIDEEVLMSLVIEMGLDRIKELPELWLGQNEFDFMTDFVCKQQPSRVSC; listed as Homo sapiens)
OUT: −0.9005

IN: Follow-up item: NPAS4-34: 60-aa TAD-seq fragment of NPAS4 (PLGGLEPLDSNLSLSGAGPPVLSLDLKPWKCQELDFLADPDNMFLEETPVEDIFMDLSTP; listed as Homo sapiens)
OUT: 0.9186

IN: Follow-up item: C3orf62-11: 60-aa TAD-seq fragment of C3orf62 (NHMCGHCQDSPFKEEAWALLMDKSPQKATDADPGSLKQAFDDHNIVETVLDLEEDYNVMT; listed as Homo sapiens) [Fragment C3orf62-11]
OUT: −0.5261

IN: Follow-up item: HSF1-20: 60-aa TAD-seq fragment of HSF1 (KNELSDHLDAMDSNLDNLQTMLSSHGFSVDTSALLDLFSPSVTVPDMSLPDLDSSLASIQ; listed as Homo sapiens)
OUT: 0.7077

IN: Follow-up item: JAZF1-1: 60-aa TAD-seq fragment of JAZF1 (MTGIAAASFFSNTCRFGGCGLHFPTLADLIEHIEDNHIDTDPRVLEKQELQQPTYVALSY; listed as Homo sapiens)
OUT: 0.6639

IN: Follow-up item: FAM22F-20: 60-aa TAD-seq fragment of FAM22F (PAETKVPEEIPPEVVQEYVDIMEELLGSHPGDTGEPEGQREKGKVEQPQEEDGITSDPGL; listed as Homo sapiens)
OUT: 2.101

IN: Follow-up item: ATF6-1: 60-aa TAD-seq fragment of ATF6 (MGEPAGVAGTMESPFSPGLFHRLDEDWDSALFAELGYFTDTDELQLEAANETYENNFDNL; listed as Homo sapiens)
OUT: 1.563

IN: Follow-up item: C11orf74-1: 60-aa TAD-seq fragment of C11orf74 (MSAHMSGLEIMDEDQLIKDVLDKFLNCHEQTYDEEFLNTFTHLSQDLLLLPGEVEQDVST; listed as Homo sapiens) [Fragment C11orf74-1]
OUT: 1.551

IN: Follow-up item: SERTAD1-10: 60-aa TAD-seq fragment of SERTAD1 (IDTSMYDNELWAPASEGLKPGPEDGPGKEEAPELDEAELDYLMDVLVGTQALERPPGPGR; listed as Homo sapiens)
OUT: 0.8385

IN: Follow-up item: SERTAD2-11: 60-aa TAD-seq fragment of SERTAD2 (SEAGTQKLDGPQESRADDSKLMDSLPGNFEITTSTGFLTDLTLDDILFADIDTSMYDFDP; listed as Homo sapiens)
OUT: 1.822

IN: Follow-up item: LIN9-25: 60-aa TAD-seq fragment of LIN9 (SRLTAILLQIKCLAEGGDLNSFEFKSLTDSLNDIKSTIDASNISCFQNNVEIHVAHIQSG; listed as Homo sapiens)
OUT: 1.08

----------
System: EGFP reporter (7×TetO array, basal CMV promoter) in HEK293T reporter cell line
Assay: TAD-seq pooled activation screen of 60-aa fragments fused to PYL1
Format: cell-based, human
Conditions: log 2 fold change of counts, sorted medium GFP cells (top 2-5%) vs unsorted cells; 100 μM ABA 48 hours
RECORDED_ENDPOINT: logFC medium GFP
When you answer, write just the number.

IN: Request - read-out logFC medium GFP | tested on EGFP reporter (7×TetO array, basal CMV promoter) in HEK293T reporter cell line | substance FAM90A1-20: 60-aa TAD-seq fragment of FAM90A1 (HPAASHDGAQPLRVLFRRLENGRWSSSLLTAPSFHSPEKPGAFLAQSPHVSEKSEGPCVR; listed as Homo sapiens)
OUT: 1.616

IN: Follow-up item: ELF4-1: 60-aa TAD-seq fragment of ELF4 (MAITLQPSDLIFEFASNGMDDDIHQLEDPSVFPAVIVEQVPYPDLLHLYSGLELDDVHNG; listed as Homo sapiens)
OUT: 0.7287

IN: Follow-up item: BRD8-24: 60-aa TAD-seq fragment of BRD8 (IDGKEELDLAEKMDIAVSYTGEELDFETVGDIIAIIEDKVDDHPEVLDVAAVEAALSFCE; listed as Homo sapiens)
OUT: 1.566

IN: Follow-up item: NPAS4-36: 60-aa TAD-seq fragment of NPAS4 (DNMFLEETPVEDIFMDLSTPDPSEEWGSGDPEAEGPGGAPSPCNNLSPEDHSFLEDLATY; listed as Homo sapiens)
OUT: 1.209

IN: Follow-up item: KLF15-6: 60-aa TAD-seq fragment of KLF15 (GPVAWGPWRRAAAPVKGEHFCLPEFPLGDPDDVPRPFQPTLEEIEEFLEENMEPGVKEVP; listed as Homo sapiens)
OUT: 1.202
